Recorded values, source paper PMC9611297.

List of melting point values.

Use the examples below as a reference point.
INSERT INTO results (smi, property, result) VALUES
  ('CCn1cc(C=Nc2nnc(SCCn3cc(CO[C@@H]4O[C@H](CO)[C@@H](O)[C@H](O)[C@H]4O)nn3)s2)c2ccccc21', 'melting point', '210 to 213 °C'),
  ('CCn1cc(C=Nc2nnc(SCCn3cc(CO[C@@H]4OC[C@@H](OC(C)=O)[C@H](OC(C)=O)[C@H]4OC(C)=O)nn3)s2)c2ccccc21', 'melting point', '136 to 138 °C'),
  ('O=C(Cn1cc(CO[C@@H]2OC[C@@H](O)[C@H](O)[C@H]2O)nn1)Nc1ccc(F)cc1', 'melting point', '197 to 198 °C'),
  ('CC(=O)O[C@@H]1[C@@H](OC(C)=O)[C@H](OCc2cn(CC(=O)Nc3ccc(C)cc3)nn2)OC[C@H]1OC(C)=O', 'melting point', '95 to 96 °C'),
  ('CC(=O)O[C@@H]1[C@@H](OC(C)=O)[C@H](OCc2cn(CC(=O)Nc3ccc(F)cc3)nn2)OC[C@H]1OC(C)=O', 'melting point', '142 to 144 °C');

Short answer for CC(=O)OC[C@H]1O[C@@H](OCc2cn(CC(=O)Nc3ccc(C)cc3)nn2)[C@H](OC(C)=O)[C@@H](OC(C)=O)[C@H]1OC(C)=O : melting point was 98 to 99 °C

Short answer for CCn1cc(C=Nc2nnc(SCCn3cc(CO[C@@H]4O[C@H](COC(C)=O)[C@@H](OC(C)=O)[C@H](OC(C)=O)[C@H]4OC(C)=O)nn3)s2)c2ccccc21 : melting point was 131 to 132 °C

Short answer for CCn1cc(C=Nc2nnc(SCCBr)s2)c2ccccc21 : melting point was 90 to 92 °C

Short answer for Cc1ccc(NC(=O)Cn2cc(CO[C@@H]3O[C@H](CO)[C@H](O)[C@H](O)[C@H]3O)nn2)cc1 : melting point was 199 to 200 °C

Short answer for CCn1cc(C=Nc2nnc(SCCN=[N+]=[N-])s2)c2ccccc21 : melting point was 101 to 102 °C

Short answer for Cc1ccc(NC(=O)Cn2cc(CO[C@@H]3OC[C@@H](O)[C@H](O)[C@H]3O)nn2)cc1 : melting point was 193 to 194 °C

Short answer for CCn1cc(C=Nc2nnc(SCCn3cc(CO[C@@H]4OC[C@@H](O)[C@H](O)[C@H]4O)nn3)s2)c2ccccc21 : melting point was 203 to 204 °C

---

Test system: MCF-7 (human breast adenocarcinoma) cell line
procedure.details: MTT cytotoxicity assay, MCF-7
condition.info: read-out: IC50 (µM) ± SD MCF-7; MTT assay, 48 h incubation, mean ± SD
property: IC50 (µM)
Answer in µM, number only, no unit symbol.

Short answer for CCn1cc(C=Nc2nnc(SCCBr)s2)c2ccccc21 [Compound 2] : IC50 was 14.1

---

System: HCT-116 (human colorectal carcinoma) cell line
procedure.details: MTT cytotoxicity assay, HCT-116
condition.info: read-out: IC50 (µM) ± SD HCT-116; MTT assay, 48 h incubation, mean ± SD
property: IC50
The reply should consist of the numeric value with the unit placed after it.

Short answer for CCn1cc(C=Nc2nnc(SCCBr)s2)c2ccccc21 : IC50 was 52.7 µM
